experiment: Acute toxicity (LD50); conditions: mouse, in vivo, ip; mice, 14 days observation
metric: LD50 at 336 h

• CCOCCn1c(CCN(C)C)nc2ccccc21 = > 100 mg/kg
• CC(C)(C)c1ccc(C(O)CCCN2CCC(C(O)(c3ccccc3)c3ccccc3)CC2)cc1 (stereo not shown) [Terfenadine, reference compound] = > 100 mg/kg
• CN(C)CCCc1nc2ccccc2n1Cc1ccc(F)cc1 = > 100 mg/kg

Next up:
## Input Could you share which LD50 at 336 h value was measured for `CCOCCn1c(CCCN(C)C)nc2ccccc21` ?
## Output 250 mg/kg

* * *

target: H1 histaminergic receptors (Rattus norvegicus, UniProt P31390); construct: in homogenates of rat brain; assay: Affinity towards H1 histaminergic receptors ([3H]Mepyramine displacement); settings: homogenates of rat brain, 25° C., 15 minutes, pH 7.5, read-out: H1-receptor binding Ki
Sequence (P31390 whole entry): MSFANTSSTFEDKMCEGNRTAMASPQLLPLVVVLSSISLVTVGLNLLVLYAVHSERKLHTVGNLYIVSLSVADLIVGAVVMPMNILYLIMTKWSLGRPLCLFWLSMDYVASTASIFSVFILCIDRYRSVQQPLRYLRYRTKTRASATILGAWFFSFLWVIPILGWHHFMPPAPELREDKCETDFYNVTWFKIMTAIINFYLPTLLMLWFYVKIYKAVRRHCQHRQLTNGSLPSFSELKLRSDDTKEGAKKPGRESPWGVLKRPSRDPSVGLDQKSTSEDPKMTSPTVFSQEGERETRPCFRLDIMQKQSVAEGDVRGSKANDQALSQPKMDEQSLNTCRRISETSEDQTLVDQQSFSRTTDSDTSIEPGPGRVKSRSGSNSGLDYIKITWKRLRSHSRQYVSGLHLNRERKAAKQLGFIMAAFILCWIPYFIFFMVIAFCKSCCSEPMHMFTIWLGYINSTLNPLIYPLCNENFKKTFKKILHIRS
Examples of compounds with documented Ki follow.
# output: numeric value plus its unit

- CCOCCn1c(CCCN(C)C)nc2ccccc21: 5.8 nM
- CN(C)CCCc1nc2ccccc2n1Cc1ccc(F)cc1: 6.1 nM

## Input Could you share which Ki value was measured for `CCOCCn1c(CCN(C)C)nc2ccccc21` ?
## Output 6.1 nM
